Measured values drawn from the PolyMetriX glass transition set for this set.

Some compounds, each annotated with its measured glass transition temperature.
Give the value, in units of °C, as a plain number.

*C(=O)c1ccc2c(c1)C(=O)N(c1ccc(C(=O)c3ccccc3N3C(=O)c4ccc(*)cc4C3=O)cc1)C2=O (repeat unit) : 289.00

Query :: Given the compound *c1cccc(C(c2cccc(-n3c(=O)c4cc5c(=O)n(*)c(=O)c5cc4c3=O)c2)(C(F)(F)F)C(F)(F)F)c1 (repeat unit) , what is its reported glass transition temperature?
Result :: 296.00

Query :: # lookup: glass transition temperature of *Oc1ccc2c(c1)C(=O)N(c1ccc(Oc3ccc(Oc4ccc(N5C(=O)c6ccc(*)cc6C5=O)cc4)cc3C(C)(C)C)cc1)C2=O (repeat unit)
Result :: 240.00

Query :: Look at this compound and give its reported glass transition temperature. *c1ccc2c(c1)C(=O)N(c1cc(N3C(=O)c4ccc([Si](*)(C)C)cc4C3=O)cc(C(F)(F)F)c1)C2=O (repeat unit)
Result :: 263.00

Query :: Item under review: *c1ccc2c(c1)C(=O)N(c1ccc(-c3ccc(N4C(=O)c5ccc(C(*)(C(F)(F)F)C(F)(F)F)cc5C4=O)cc3-c3ccc(-c4ccccc4)cc3)c(-c3ccc(-c4ccccc4)cc3)c1)C2=O (repeat unit) . Reported glass transition temperature?
Result :: 285.00
